Target system: GLP-1R in a pancreatic insulinoma cell line (EndoC-PH1) (Homo sapiens)
Sequence (P43220 24-463): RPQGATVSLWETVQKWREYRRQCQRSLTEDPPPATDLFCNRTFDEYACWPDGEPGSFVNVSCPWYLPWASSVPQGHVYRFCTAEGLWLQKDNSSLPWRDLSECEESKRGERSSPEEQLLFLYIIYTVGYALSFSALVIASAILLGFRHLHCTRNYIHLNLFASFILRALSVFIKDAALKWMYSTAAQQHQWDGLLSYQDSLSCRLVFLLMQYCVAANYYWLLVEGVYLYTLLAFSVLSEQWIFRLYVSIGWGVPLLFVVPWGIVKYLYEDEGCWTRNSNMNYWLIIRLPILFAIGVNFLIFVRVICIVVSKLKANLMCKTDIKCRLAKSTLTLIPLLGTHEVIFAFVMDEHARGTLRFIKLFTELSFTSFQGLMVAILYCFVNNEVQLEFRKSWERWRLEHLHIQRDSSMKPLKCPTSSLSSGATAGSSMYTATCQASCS
Protocol: EndoC cAMP Accumulation Assay (HTRF)
Particulars: EndoC-PH1 human pancreatic beta cell line, endogenous GLP-1R, 30 min at rt
Measured metric: EC50 (nM)
Answers are plain numbers, in nM.

Solved cases below.
COc1cc(C(=O)O)cc2c1nc(CN1CCN(c3cccc4c3O[C@@](C)(c3ccc(Cl)cn3)O4)[C@H]3CC[C@@H]31)n2C[C@@H]1CCCO1 (single isomer, unassigned) [Example 7b] ... 6.1
C[C@]1(c2ccc(Cl)cc2F)Oc2cccc(N3CCN(Cc4nc5c(F)cc(C(=O)O)cc5n4C[C@@H]4CCO4)[C@H]4CC[C@H]43)c2O1 (single isomer, unassigned) [Example 9c] ... 74

Provide measured EC50 value, entry: C[C@]1(c2ccc(Cl)cn2)Oc2cccc(N3CCN(Cc4nc5c(F)cc(C(=O)O)cc5n4C[C@@H]4CCO4)[C@H]4CC[C@H]43)c2O1 (single isomer, unassigned) [Example 1c]
3.2

###

Target system: human GLP-1R receptor (Homo sapiens, UniProt P43220, L260F)
Sequence (P43220 24-463 L260F): as the sequence (P43220 24-463) above, with L237F counted along it
Protocol: CHOK1 GLP-1R cAMP Assay (HTRF)
Particulars: CHO-K1 cells stably expressing human GLP-1R (Leu260Phe variant), 20 min at rt
Measured metric: EC50

These recorded examples may help you get a feel for the data.
COc1cc(C(=O)O)cc2c1nc(CN1CCN(c3cccc4c3O[C@@](C)(c3ccc(Cl)cn3)O4)[C@H]3CC[C@@H]31)n2C[C@@H]1CCCO1 (single isomer, unassigned) [Example 7b] ... 2.5 nM
C[C@]1(c2ccc(Cl)cn2)Oc2cccc(N3CCN(Cc4nc5c(F)cc(C(=O)O)cc5n4C[C@@H]4CCO4)[C@H]4CC[C@H]43)c2O1 (single isomer, unassigned) [Example 1b] ... 1.2 nM
C[C@]1(c2ccc(Cl)cn2)Oc2cccc(N3CCN(Cc4nc5c(Cl)cc(C(=O)O)cc5n4CC4(CC#N)CC4)[C@H]4CC[C@@H]43)c2O1 (single isomer, unassigned) [Example 26d] ... 10 nM
C[C@]1(c2ccc(Cl)cc2F)Oc2cccc(N3CCN(Cc4nc5ccc(C(=O)O)cc5n4C[C@@H]4CCO4)[C@H]4CC[C@@H]43)c2O1 (single isomer, unassigned) [Example 21b] ... 340 nM
C[C@]1(c2ccc(Cl)cn2)Oc2cccc(N3CCN(Cc4nc5c(F)cc(C(=O)O)cc5n4CC4(CC#N)CC4)[C@H]4CC[C@@H]43)c2O1 (single isomer, unassigned) [Example 23a] ... 1.1 nM

// for each compound in input: emit EC50
1. C[C@]1(c2ccc(Cl)cn2)Oc2cccc(N3CCN(Cc4nc5c(F)cc(C(=O)O)cc5n4CC4(CC#N)CC4)[C@H]4CC[C@@H]43)c2O1 (single isomer, unassigned) [Example 23d]
2. CC1(c2ccc(Cl)cn2)Oc2cccc(N3CCN(Cc4nc5c(F)cc(C(=O)O)cc5n4CCOC4CC4(F)F)[C@H]4CC[C@@H]43)c2O1 (mixture of isomers)
3. C[C@]1(c2ccc(Cl)cn2)Oc2cccc(N3CCN(Cc4nc5ccc(C(=O)O)cc5n4C[C@@H]4CCO4)[C@H]4CC[C@@H]43)c2O1 (single isomer, unassigned) [Example 22a]
4. C[C@]1(c2ccc(Cl)cc2F)Oc2cccc(N3CCN(Cc4nc5ccc(C(=O)O)cc5n4C[C@@H]4CCO4)[C@H]4CC[C@H]43)c2O1 (single isomer, unassigned) [Example 18b]
5. C[C@]1(c2ccc(Cl)cn2)Oc2cccc(N3CCN(Cc4nc5ccc(C(=O)O)cc5n4C[C@@H]4CCO4)[C@H]4CC[C@H]43)c2O1 (single isomer, unassigned) [Example 5d]

1. 11 nM
2. 45 nM
3. 29 nM
4. 120 nM
5. 4.7 nM

These measurements were taken from patent US20240417393A1.
